- target under test: T1, SARS-COV-2 RBD (SARS-COV-2, UniProt P0DTC2 319-539)
- T1 construct: also called WT RBD
- measurement protocol: ELISA, RBD coated
Examples of binders with documented EC50 follow.
# unit: ng/mL | format: bare number

Here are 3 binders together with their reported answers.
1) C962 (antibody, V domains shown, IgG; V domains only) VH: EVQLVESGGGLVQPGGSLRLSCTASRLTVSSNYMNWVRQAPGKGLEWVSVIYAGGSTFYADSVKDRFTISRDNSMNTLYLQMNSLRVEDTAVYYCARLGGYRYGMDVWGQGTTVTV VL: DIQMTQSPSSLSASVGDRVTITCQASQDISNYLNWYQQSPGKAPKLLIYDASKLETGVPSRFSGSGSGTDFTFTISSLQPEDIATYYCLQYDNLPYSFGQGTKLEI    1.74
2) C1041 (antibody, V domains shown, IgG; V domains only) VH: QVQLVQSGAEVKKPGASVKVSCKASGYTFSDHYIYWVRQAPGQGLEWMGIINPSAGSTSYAQKFQGRVTMTRDTSTSTVYMELSSLRSEDTAVYYCARDIVFVPATMAMDVWGLGTTVTVSS VL: EIVLTQSPATLSLSPGERATLSCRASQSVSRYLAWYQQKPGQAPRLLIYDASNRATGIPARFSGSGSGTDFTLTISSLEPEDFAVYYCQQRSNWLFTFGPGTKVDIK    3.65
3) C994 (antibody, V domains shown, IgG; V domains only) VH: QVQLQESGPGLVKPSGTLSLTCAVSGVSISNTNWWNWVRQPPGKGLEWIGEIYHTGSARYNPSLRSRVTISVDKSKNQFSLRLNSATAADTAIYYCARAQTPEFGELLYWGQGALVTVSS VL: DIQMTQSPSSLSASVGDRVTITCRASQSITDHLNWYQQKPGKAPKLLIYAASSLQTGVPSRFSGSGSETDFTLTISTLQPEDFATYYCQQSYGPPTYSFGQGTKLEIK    2.09

Return EC50 (reported value) for this binder: C892 (antibody, V domains shown, IgG; V domains only) VH: EVQLVESGGGLVKPGGSLKVSCTASGFTFTDAWMSWVRQAPGKGLEWVGRIKSRAYGGTTDYGAPVQGRFTISRDDSINTLYLQMNSLTAEDTAVYYCTSQLWLRGPGDYWGQGTLVTVSS VL: NFMLTQPHSVSESPGKTVTISCTGSSGSIASNYVHWYQQRPGGAPTTVIYEDNQRPSGVPDRFSGSIDISSNSASLTISGLKTEDEGDYYCQSYDSGVNWVFGGGTKLTVL
1.83

Specify measured EC50 for C886 (antibody, V domains shown, IgG; V domains only) VH: EVQLVESGGDLVQPGGSLRLSCAASGFSVTTNAMAWVRQAPGKGLEWISYINIGSANIQYADSVKGRFTISRDNAKNSLYLQMNSLRDEDTAVYYCARGDCTSSSCYSLDYWGQGALVTVSS VL: DIQMTQSPSSLSASVGDRVSITCRASQTINTHLSWYLQKPGEAPRLLVYAASTLHSGVPSRFSGSGSGTDFTLTISSLQPEDFATFYCQQTYRFPLTFGGGTKVEIK .
2.48
